- Test system: EKVX NSCLC
- protocol.details: NCI-60 one-dose screen, 48 h (100 = growth as untreated, 0 = no growth, -100 = all killed)
- assay.context: 10 µM unless noted
About 83,000 compounds went through this panel and 20% of them were active in at least one assay; those are over-represented in the sample as a whole.
# if value of growth reaches 90%, tag satisfied; if it stays below, tag not satisfied

Check out these entries, answers already filled in.
1) NC(N)=N/N=C\c1cccc(OCc2ccccc2)c1 : not satisfied
2) C=C(CN1CC=CCC1)[C@@H]1CC[C@]2(C(=O)OC)CC[C@]3(C)[C@H](CC[C@@H]4[C@@]5(C)CC[C@H](OC(C)=O)C(C)(C)[C@@H]5CC[C@]43C)[C@@H]12 : satisfied

Pending molecule:
Query string: Does the reported growth for Cc1cc2nc3c(=O)[nH]c(=O)nc-3n(CC=O)c2cc1C fall at or above the 90% mark?
Result string: satisfied
